B1: CPEB3 Ribozyme (parent)
chain: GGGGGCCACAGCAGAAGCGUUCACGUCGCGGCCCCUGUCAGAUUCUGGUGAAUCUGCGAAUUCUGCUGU

variants of: B1; test: self-cleavage, relative activity (ratio to wild type); higher = more cleavage; co-transcriptional
self-cleavage values for the variants below.
No unit in the answer, please; the number alone is enough.

In [3]: df
Out[3]:
                                biosequence  meas_value
0  GGGGGCCACAGCAGAAGCGUUCACGUCGCUGCCCCUGUCAGAUUCUGGUGAAUCUGCGAAUUCCGCUGU [G30U U64C]       0.353
1  GGGGGCCACAGCAGAUGCGUUCACGUCGCGGCCCCUGUCAGAUUCUGGUGAAUUUGCGAAUUCUGCUGU [A16U C54U]       0.895
2  GGGGGCCACAGCAGAAGCGUUCACGUCGCGACCCCUGUCAGAUUCUGGUGAGUCUGCGAAUUCUGCUGU [G31A A52G]       0.907
3  GGGGGCCACAGCAGAAGCGUUCGCGUCGCGGCCCCUGUCAGAUUCGGGUGAAUCUGCGAAUUCUGCUGU [A23G U46G]        1.01
4  GGGGGCCAUAGCGGAAGCGUUCACGUCGCGGCCCCUGUCAGAUUCUGGUGAAUCUGCGAAUUCUGCUGU [C9U A13G]        1.04

Lab note: measured self-cleavage of GGGGGCCACAGCAGAAGCGUUCAGGUCGCGGCCCCUGUCAGAUUCUGGUGUAUCUGCGAAUUCUGCUGU [C24G A51U] was 0.353

Lab note: measured self-cleavage of GGGGGCCACAGCAGAAGCGUUCACGUCACGGCCCCUGUCAGAUUUUGGUGAAUCUGCGAAUUCUGCUGU [G28A C45U] was 0.202

Lab note: measured self-cleavage of GGGGGCCACAGAAGAAGAGUUCACGUCGCGGCCCCUGUCAGAUUCUGGUGAAUCUGCGAAUUCUGCUGU [C12A C18A] was 0.139

Lab note: measured self-cleavage of GGGGGCCACAGCAGAAGCGUUCACGUCGCCGCCCCUGUCAGAUUCUGGUGAAUCUGCGAAAUCUGCUGU [G30C U61A] was 0.258

Lab note: measured self-cleavage of GGGGGCCACAGCAGAAGCGUUCACGUCGCGGCCCCUGUCAGAUUCUGGUGAAUCUCCGAAUUCGGCUGU [G56C U64G] was 0.533

Lab note: measured self-cleavage of GGGGGCCACAGCAGAAGCGUUCAGGUCGCGGCCCCUGUCAGAUUCUGGUGAAUCUGCGAGUUCUGCUGU [C24G A60G] was 0.264
